measured-target: kappa-opioid receptor (KOR) (Cavia porcellus)
Construct: Guinea pig cortices and cerebella were homogenized using 50 mM Tris, pH 7.4; from tissue; host or cells: guinea pig cortex and cerebellum membranes
experiment-summary: KOR radioligand competition binding assay ([3H]U69,593)
Set-up: species or system guinea pig
measurement-context: Kappa screening results, experiment 1; unit inferred; read-out: Ki (Exp 1)
pKi: −log10 of the molar value.
assay-readout: pKi

[[record]]
molecule = "N=C1NC[C@H](Cc2ccccc2)N1C[C@H](Cc1ccccc1)N1C[C@H](Cc2ccccc2)NC1=N [1968-65]"
assay_readout = "pKi"
reported_value = 4.78

[[record]]
molecule = "C[C@H]1CNC(=N)N1C[C@H](Cc1ccc(O)cc1)N1C[C@H](Cc2ccc(O)cc2)NC1=N [1968-38]"
assay_readout = "pKi"
reported_value = 5.77

[[record]]
molecule = "Cc1cc(O)cc(C)c1C[C@H]1CNC(=N)N1C[C@H](Cc1ccccc1)N1C[C@H](Cc2ccc(O)cc2)NC1=N [1968-50]"
assay_readout = "pKi"
reported_value = 5.72

[[record]]
molecule = "N=C1NC[C@H](Cc2ccc(O)cc2)N1C[C@H](Cc1ccccc1)N1C[C@H](Cc2ccccc2)NC1=N [1968-17]"
assay_readout = "pKi"
reported_value = 5.20

[[record]]
molecule = "CC(C)C[C@@H](CN1C(=N)NC[C@@H]1C)N1C[C@H](Cc2ccccc2)NC1=N [1968-41]"
assay_readout = "pKi"
reported_value = 4.62

[[record]]
molecule = "N=C1NC[C@H](Cc2ccccc2)N1C[C@H](Cc1ccc(O)cc1)N1C[C@H](Cc2ccccc2)NC1=N [1968-5]"
assay_readout = "pKi"
reported_value = 5.40

[[record]]
molecule = "Cc1cc(O)cc(C)c1C[C@H]1CN([C@@H](Cc2c(C)cc(O)cc2C)CN2C(=N)NC[C@@H]2Cc2ccc(O)cc2)C(=N)N1 [1968-32]"
assay_readout = "pKi"
reported_value = 5.75

[[record]]
molecule = "N=C1NC[C@H](Cc2ccc(O)cc2)N1C[C@H](Cc1ccc(O)cc1)N1C[C@H](Cc2ccccc2)NC1=N [1968-21]"
assay_readout = "pKi"
reported_value = 5.44

[[record]]
molecule = "CC(C)C[C@@H](CN1C(=N)NC[C@@H]1C)N1C[C@H](Cc2ccc(O)cc2)NC1=N [1968-42]"
assay_readout = "pKi"
reported_value = 4.91

[[record]]
molecule = "Cc1cc(O)cc(C)c1C[C@H]1CNC(=N)N1C[C@H](Cc1c(C)cc(O)cc1C)N1C[C@H](Cc2ccc(O)cc2)NC1=N [1968-62]"
assay_readout = "pKi"
reported_value = 5.64

[[record]]
molecule = "CC(C)C[C@H]1CN([C@@H](Cc2ccccc2)CN2C(=N)NC[C@@H]2Cc2ccc(O)cc2)C(=N)N1 [1968-69]"
assay_readout = "pKi"
reported_value = 5.67

[[record]]
molecule = "Cc1cc(O)cc(C)c1C[C@H]1CN([C@@H](Cc2c(C)cc(O)cc2C)CN2C(=N)NC[C@@H]2Cc2c(C)cc(O)cc2C)C(=N)N1 [1968-64]"
assay_readout = "pKi"
reported_value = 5.55

[[record]]
molecule = "CC(C)C[C@@H](CN1C(=N)NC[C@@H]1Cc1ccccc1)N1C[C@H](Cc2ccc(O)cc2)NC1=N [1968-10]"
assay_readout = "pKi"
reported_value = 5.26

[[record]]
molecule = "CC(C)C[C@H]1CN([C@@H](Cc2ccc(O)cc2)CN2C(=N)NC[C@@H]2Cc2ccc(O)cc2)C(=N)N1 [1968-23]"
assay_readout = "pKi"
reported_value = 5.02

[[record]]
molecule = "Cc1cc(O)cc(C)c1C[C@@H](CN1C(=N)NC[C@@H]1Cc1ccc(O)cc1)N1C[C@H](Cc2ccc(O)cc2)NC1=N [1968-30]"
assay_readout = "pKi"
reported_value = 5.76

[[record]]
molecule = "C[C@H]1CNC(=N)N1C[C@H](Cc1ccccc1)N1C[C@H](Cc2ccccc2)NC1=N [1968-33]"
assay_readout = "pKi"
reported_value = 4.79

[[record]]
molecule = "CC(C)C[C@H]1CN([C@@H](CC(C)C)CN2C(=N)NC[C@@H]2C)C(=N)N1 [1968-43]"
assay_readout = "pKi"
reported_value = 4.44

[[record]]
molecule = "Cc1cc(O)cc(C)c1C[C@H]1CN([C@@H](Cc2c(C)cc(O)cc2C)CN2C(=N)NC[C@@H]2Cc2ccccc2)C(=N)N1 [1968-68]"
assay_readout = "pKi"
reported_value = 6.27

[[record]]
molecule = "Cc1cc(O)cc(C)c1C[C@H]1CN([C@@H](Cc2ccc(O)cc2)CN2C(=N)NC[C@@H]2Cc2ccccc2)C(=N)N1 [1968-4]"
assay_readout = "pKi"
reported_value = 6.51

[[record]]
molecule = "Cc1cc(O)cc(C)c1C[C@H]1CNC(=N)N1C[C@H](Cc1ccc(O)cc1)N1C[C@H](Cc2ccc(O)cc2)NC1=N [1968-54]"
assay_readout = "pKi"
reported_value = 5.84

[[record]]
molecule = "Cc1cc(O)cc(C)c1C[C@H]1CN([C@@H](Cc2ccc(O)cc2)CN2C(=N)NC[C@@H]2C)C(=N)N1 [1968-40]"
assay_readout = "pKi"
reported_value = 6.63

[[record]]
molecule = "Cc1cc(O)cc(C)c1C[C@H]1CNC(=N)N1C[C@H](Cc1c(C)cc(O)cc1C)N1C[C@H](CC(C)C)NC1=N [1968-63]"
assay_readout = "pKi"
reported_value = 5.79

[[record]]
molecule = "CC(C)C[C@@H](CN1C(=N)NC[C@@H]1Cc1ccccc1)N1C[C@H](Cc2ccccc2)NC1=N [1968-9]"
assay_readout = "pKi"
reported_value = 4.94

[[record]]
molecule = "CC(C)C[C@H]1CN([C@@H](Cc2ccccc2)CN2C(=N)NC[C@@H]2C)C(=N)N1 [1968-35]"
assay_readout = "pKi"
reported_value = 4.47

[[record]]
molecule = "CC(C)C[C@@H](CN1C(=N)NC[C@@H]1Cc1ccc(O)cc1)N1C[C@H](Cc2ccc(O)cc2)NC1=N [1968-26]"
assay_readout = "pKi"
reported_value = 4.80

[[record]]
molecule = "C[C@H]1CNC(=N)N1C[C@H](Cc1ccccc1)N1C[C@H](Cc2ccc(O)cc2)NC1=N [1968-34]"
assay_readout = "pKi"
reported_value = 5.19

[[record]]
molecule = "N=C1NC[C@H](Cc2ccc(O)cc2)N1C[C@H](Cc1ccccc1)N1C[C@H](Cc2ccc(O)cc2)NC1=N [1968-18]"
assay_readout = "pKi"
reported_value = 5.46

[[record]]
molecule = "CC(C)C[C@H]1CN([C@@H](Cc2ccc(O)cc2)CN2C(=N)NC[C@@H]2C)C(=N)N1 [1968-39]"
assay_readout = "pKi"
reported_value = 5.39

[[record]]
molecule = "Cc1cc(O)cc(C)c1C[C@H]1CN([C@@H](Cc2c(C)cc(O)cc2C)CN2C(=N)NC[C@@H]2C)C(=N)N1 [1968-22]"
assay_readout = "pKi"
reported_value = 6.71

